System: A498
Measurement notes: NCI tumour cell line growth inhibition, 48 h
The source made the active and inactive calls. Rule as the data show it: active = GI50 up to about 1.1 µM and inactive = higher.
Readout name: GI50

CC12CC3OC(=O)C1COC14OC5(C2C1=O)C(O)(CCC1C4CC2OC24CC=CC(=O)C14C)C(=O)OC35C (stereo not given); 18.8 µM (inactive)

Quick one: give me GI50 for each item below, same order please.
1. Cc1ccc(S(=O)(=O)N2CCCCC2CCO)cc1 (stereo not given)
2. Fc1c(F)c(C(F)(F)F)c(F)c(F)c1N/N=C/c1cn(Cc2ccccc2)c2ccccc12
3. O=C(CCc1cccc(O)c1)NCCc1ccc(O)cc1
4. Cc1c2cc[n+](COC(=O)c3ccccc3)cc2c(C)c2c1[nH]c1ccccc12

1. > 100 µM (inactive)
2. 27.9 µM (inactive)
3. > 100 µM (inactive)
4. 1.23 µM (inactive)
